Subject of test: T1, human TREM2 on the cell surface (human, UniProt Q9NZC2 19-230)
T1 construct: also called surface TREM2; TREM2 expressed in HEK293-H6 cells
T1 sequence: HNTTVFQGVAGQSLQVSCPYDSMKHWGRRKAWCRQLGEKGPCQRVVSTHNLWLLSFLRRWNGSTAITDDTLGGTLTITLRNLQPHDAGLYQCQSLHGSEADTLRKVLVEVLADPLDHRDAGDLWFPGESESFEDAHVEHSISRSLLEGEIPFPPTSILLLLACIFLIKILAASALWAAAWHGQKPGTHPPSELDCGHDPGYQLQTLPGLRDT
Test summary: flow cytometry, dose-titrated binding to HEK293-H6 cells
Quantity kind: EC50 (nM)
Value expressed in nM; do not type the unit.

CL0020188-5 (antibody, V domains shown, Humanized variant of CL0020188 (hVH NA/graft, hVL NG/graft); also called Clone CL0020188-5) VH: EVQLVESGGGLVQPGGSLRLSCAASGFTFTDFYMSWVRQAPGKGLEWVSVIRNKANAYTAGYNPSVKGRFTISRDNSKNTLYLQMNSLRAEDTAVYYCARLTYGFDYWGQGTLVTVSS VL: DIVMTQTPLSLPVTPGEPASISCQSSKSLLHSNGKTYLNWYLQKPGQSPQLLIYWMSTRASGVPDRFSGSGSGTDFTLKISRVEAEDVGVYYCQQFLEYPFTFGQGTKVEIK :: 0.45

Now take the following binder into account.
May I ask what EC50 has been recorded for CL0020188 (antibody, V domains shown, also called Clone CL0020188) VH: EVKLLDSGGGLVQAGGSLRLSCAGSGFTFTDFYMSWIRQPPGKAPEWLGVIRNKANGYTAGYNPSVKGRFTISRDNTQNILYLQMNTLRAEDTAIYYCARLTYGFDYWGQGVMVTVSS VL: DIVMTQGALPNPVPSGESASITCQSSKSLLHSNGKTYLNWYLQRPGQSPQLLIYWMSTRASGVSDRFSGSGSGTDFTLKISSVEAEDVGVYYCQQFLEYPFTFGSGTKLEIK ?
0.44
